- protocol notes: gradient 5% acetonitrile 3 min, to 50% in 2 min, to 85% in 15 min, held 3 min, 100 µL/min
- condition notes: column: Zorbax Extend-C18 2.1 x 50 mm; eluents: water / acetonitrile, 0.1% formic acid
property measured: RP-LC retention time (s)

Please review the entries below; each comes with its answer.
[
  {
    "molecule": "O=C(Cc1nnc(-c2cccc(F)c2)o1)N1CCC2(CC1)OCCO2",
    "RP-LC retention time (s)": 698
  },
  {
    "molecule": "O=C(CC1=C2CCCCC2NC1=O)Nc1ccccc1 (stereo not given)",
    "RP-LC retention time (s)": 681
  },
  {
    "molecule": "Cc1c(C(=O)NCC2CC2)cnn1-c1ccc(-c2nc(C(C)(C)C)no2)cn1",
    "RP-LC retention time (s)": 1020
  },
  {
    "molecule": "CN(C)CCCNC(=O)C1CCN(c2nc3ccc(-c4ccc(F)cc4)nc3s2)CC1",
    "RP-LC retention time (s)": 686
  },
  {
    "molecule": "Cn1nc(-c2nnc(-c3ccccc3)o2)c2c1CCN(S(=O)(=O)c1ccccc1Cl)C2",
    "RP-LC retention time (s)": 938
  },
  {
    "molecule": "Cc1cc(C)n2c(Nc3ccc(C(C)C)cc3)c(-c3ccc(Cl)cc3)nc2n1",
    "RP-LC retention time (s)": 985
  },
  {
    "molecule": "Cc1sc2ccn(C)c(=O)c2c1C(=O)NCc1ccccc1Cl",
    "RP-LC retention time (s)": 798
  },
  {
    "molecule": "CCn1cc(CCNC(=O)Nc2ccc(C)c(C)c2)c2cccnc21",
    "RP-LC retention time (s)": 762
  },
  {
    "molecule": "CCS(=O)(=O)c1nc2ccc(NS(=O)(=O)c3cc(C)cc(C)c3)cc2s1",
    "RP-LC retention time (s)": 936
  },
  {
    "molecule": "O=C(c1c[nH]c2ccccc12)N1CCCCC1c1nc(C2CC2)no1 (stereo not given)",
    "RP-LC retention time (s)": 866
  }
]

a = COC(=O)c1ncn2c1C(=O)N(C1CC1)C(C)(C(=O)NCc1ccc(C)cc1)C2 (stereo not given)
b = COc1ccc(N2CC(c3noc(-c4ccc(F)c(F)c4)n3)CC2=O)cc1 (stereo not given)
q: Smaller RP-LC retention time value? Options are a and b API: response body contains the label of the selected item.
a: a
